Attribution: patent EP2550959A1

- systemUnderTest: 5-HT2B Rezeptoren von Schweinelungenarterien (Sus scrofa, UniProt F1SMV8)
- Sequence (F1SMV8 1-481): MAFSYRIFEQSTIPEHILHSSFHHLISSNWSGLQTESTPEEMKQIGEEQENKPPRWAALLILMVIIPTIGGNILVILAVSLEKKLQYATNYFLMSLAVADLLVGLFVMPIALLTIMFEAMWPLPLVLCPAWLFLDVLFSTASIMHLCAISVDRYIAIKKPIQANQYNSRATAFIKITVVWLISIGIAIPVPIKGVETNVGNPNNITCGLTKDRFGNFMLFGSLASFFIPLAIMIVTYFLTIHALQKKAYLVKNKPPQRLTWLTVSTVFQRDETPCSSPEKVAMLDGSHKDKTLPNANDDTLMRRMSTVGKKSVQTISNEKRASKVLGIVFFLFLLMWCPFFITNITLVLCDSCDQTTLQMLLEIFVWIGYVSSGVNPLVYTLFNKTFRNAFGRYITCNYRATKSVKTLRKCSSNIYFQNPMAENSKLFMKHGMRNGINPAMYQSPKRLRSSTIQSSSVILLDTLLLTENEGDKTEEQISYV
- measurementNotes: Functional 5-HT2B receptor assay: 5-HT-induced relaxation of PGF2α-precontracted pig pulmonary arteries
- Assay type: biochemical, Schwein
- experimentalParameters: conditions as in Beispiel 1
parameter: 5-HT2B pA2
No unit in the answer, only the number.

# example entries with known answers
Sure, the documented 5-HT2B pA2 for CCNC(=O)NC1C=C2c3cccc4[nH]cc(c34)CC2N(C)C1 (centres unmarked) [N"-Monodesethyllisurid] is 8.08

# 5-HT2B pA2 (compound: CCN(CC)C(=O)NC1CC2c3cccc4[nH]cc(c34)CC2N(C)C1 (stereo not drawn) [8β-Tergurid] ) is 8.39

***
GET /value?item= CCN(CC)C(=O)NC1C=C2c3cccc4[nH]cc(c34)CC2NC1 (centres unmarked) [6-Norlisurid] &field=5-HT2B pA2 returns 8.39

5-HT2B pA2 reading for CCNC(=O)NC1CC2c3cccc4[nH]cc(c34)CC2N(C)C1 (centres unmarked) [N"-Monodesethyltergurid] : 7.30

Query CCN(CC)C(=O)NC1CNC2Cc3c[nH]c4cccc(c34)C2C1 (centres unmarked) [6-Nortergurid] yields 5-HT2B pA2 of 7.11

###

- systemUnderTest: 5-HT2A Rezeptoren von Schweineherzkranzarterien (Sus scrofa, UniProt P50129)
- Sequence (P50129 whole entry): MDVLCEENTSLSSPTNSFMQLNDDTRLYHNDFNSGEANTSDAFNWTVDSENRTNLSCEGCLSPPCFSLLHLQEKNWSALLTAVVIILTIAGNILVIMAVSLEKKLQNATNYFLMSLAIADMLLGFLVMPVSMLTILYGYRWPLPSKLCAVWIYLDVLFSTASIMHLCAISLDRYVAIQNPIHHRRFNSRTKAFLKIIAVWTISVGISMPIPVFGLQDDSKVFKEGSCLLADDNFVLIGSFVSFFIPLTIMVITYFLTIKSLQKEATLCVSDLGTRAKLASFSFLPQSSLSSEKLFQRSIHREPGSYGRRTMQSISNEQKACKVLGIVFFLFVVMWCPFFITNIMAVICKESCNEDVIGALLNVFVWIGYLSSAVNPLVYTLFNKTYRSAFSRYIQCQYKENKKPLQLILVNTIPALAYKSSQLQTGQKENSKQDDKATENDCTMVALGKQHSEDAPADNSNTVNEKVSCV
- measurementNotes: Functional 5-HT2A receptor assay: 5-HT-induced contraction of pig coronary arteries
- Assay type: biochemical, Schwein
parameter: IC50 (nM)
Just the number please, in nM, no unit attached.

get_value(item= CCN(CC)C(=O)N[C@H]1C[C@@H]2c3cccc4[nH]cc(c34)C[C@H]2N(C)C1 [Tergurid, trans-Dihydrolisurid] , readout=IC50) returns 0.372

###

- systemUnderTest: 5-HT2A Rezeptoren von Schweineherzkranzarterien (Sus scrofa)
- measurementNotes: Functional 5-HT2A receptor assay: 5-HT-induced contraction of pig coronary arteries
- Type: biochemical, Schwein
parameter: Kb (nM)
The answer is to be given in nM; state only the numeric part.

Consider the worked cases shown below.
CCN(CC)C(=O)NC1CNC2Cc3c[nH]c4cccc(c34)C2C1 (centres unmarked) yielded Kb of 14.1

The reported value for CCN(CC)C(=O)NC1C=C2c3cccc4[nH]cc(c34)CC2NC1 (centres unmarked) in terms of Kb is 1.45

Query CCNC(=O)NC1CC2c3cccc4[nH]cc(c34)CC2N(C)C1 (centres unmarked) yields Kb of 15.1

Form: compound = CCNC(=O)NC1C=C2c3cccc4[nH]cc(c34)CC2N(C)C1 (centres unmarked) ; Kb = 5.13

Would you kindly look at the next entry?
Short answer for CCN(CC)C(=O)NC1CC2c3cccc4[nH]cc(c34)CC2N(C)C1 (centres unmarked) : Kb was 5.13
